Test system: LPETG (Abz-LPETGK(Dnp)-CONH2)
Assay: In vitro sortase kinetics HPLC assay, LPETG substrate
Assay type: biochemical
Details: Sub LPETG; 100 mM GGG; read-out: Km
outcome measure: Km
Be sure to follow the number with its unit.

Before answering, review these 3 worked examples.
eSrtA(4S-9): P94R, N98D, S102C, A104V, A118T, F122A, K134R, F144L, D160N, D165A, I182V, E189F, K190E, K196T (protein) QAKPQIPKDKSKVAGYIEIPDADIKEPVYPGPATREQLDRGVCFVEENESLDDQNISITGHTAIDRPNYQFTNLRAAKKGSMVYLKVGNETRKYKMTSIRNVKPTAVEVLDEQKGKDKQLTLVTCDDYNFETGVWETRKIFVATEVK; 64.7 µM
eSrtA (protein) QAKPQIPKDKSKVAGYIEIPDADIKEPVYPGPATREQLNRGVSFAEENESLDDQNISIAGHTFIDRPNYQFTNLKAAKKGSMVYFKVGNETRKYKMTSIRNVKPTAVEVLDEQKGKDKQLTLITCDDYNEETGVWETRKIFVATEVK; 230 µM
SrtA: wild-type Staphylococcus aureus sortase A (SEQ ID NO: 1) (protein, S. aureus) MKKWTNRLMTIAGVVLILVAAYLFAKPHIDNYLHDKDKDEKIEQYDKNVKEQASKDKKQQAKPQIPKDKSKVAGYIEIPDADIKEPVYPGPATPEQLNRGVSFAEENESLDDQNISIAGHTFIDRPNYQFTNLKAAKKGSMVYFKVGNETRKYKMTSIRDVKPTDVEVLDEQKGKDKQLTLITCDDYNEKTGVWEKRKIFVATEVK; 7600 µM

Now look at this one.
Inquiry: Tell me the measured Km of eSrtA(2A-9): P94R, S102C, A104H, E105D, K138P, K152I, N160K, K162H, T164N, D165A, K173E, I182V, K190E, T196S (protein) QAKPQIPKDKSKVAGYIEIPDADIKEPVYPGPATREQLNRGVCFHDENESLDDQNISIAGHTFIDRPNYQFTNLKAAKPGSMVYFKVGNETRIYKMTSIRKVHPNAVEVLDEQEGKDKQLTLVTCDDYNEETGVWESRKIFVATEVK , please.
Reply text: 1270 µM
